Please go through the items and note down their IC50.
- measurement_target: Protein skinhead-1 (Caenorhabditis elegans)
- Sequence (P34707 whole entry): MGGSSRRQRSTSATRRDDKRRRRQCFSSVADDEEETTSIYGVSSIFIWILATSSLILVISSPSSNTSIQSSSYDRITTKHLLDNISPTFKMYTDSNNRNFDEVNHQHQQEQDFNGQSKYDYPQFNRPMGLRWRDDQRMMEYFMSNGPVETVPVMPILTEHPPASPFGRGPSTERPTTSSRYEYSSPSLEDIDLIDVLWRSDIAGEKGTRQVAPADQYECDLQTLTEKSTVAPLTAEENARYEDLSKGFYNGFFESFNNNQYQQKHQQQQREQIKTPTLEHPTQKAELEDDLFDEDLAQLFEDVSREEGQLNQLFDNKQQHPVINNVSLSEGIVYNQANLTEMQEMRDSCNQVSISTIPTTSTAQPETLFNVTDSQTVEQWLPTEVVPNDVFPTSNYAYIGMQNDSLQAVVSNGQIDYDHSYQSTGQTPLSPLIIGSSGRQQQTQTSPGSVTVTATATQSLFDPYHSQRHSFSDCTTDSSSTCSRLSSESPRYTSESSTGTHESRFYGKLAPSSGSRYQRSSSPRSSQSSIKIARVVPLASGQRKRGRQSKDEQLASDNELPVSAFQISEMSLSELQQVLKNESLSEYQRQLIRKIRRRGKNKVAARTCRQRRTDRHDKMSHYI
- Type: functional
Activity calls are given as the source filed them.

# IC50 lookup, item "CCCCOc1ccc(-c2nnc(-c3ccco3)o2)cc1" > 100 µM (inactive)

# IC50 lookup, item Cc1nonc1OC(C)CNc1ccc([N+](=O)[O-])cc1 (stereo not given) > 100 µM (inactive)

# IC50 lookup, item "Clc1ccc(OCCCc2nc(-c3ccncc3)no2)c(Cl)c1" 20.4 µM (active)

# IC50 lookup, item "Fc1ccc(COc2ccc(-c3nnco3)cc2)c(Cl)c1" 6.56 µM (active)

Now consider a different compound.
# IC50 lookup, item "O=C1/C(=C/c2ccco2)CCc2ccccc21" 31.2 µM (active)
